Value source: patent EP1068184B1

Target: 5-HT1A cloned receptor (Homo sapiens, UniProt P08908)
Construct: expressed in transfected cells
Sequence (P08908 whole entry): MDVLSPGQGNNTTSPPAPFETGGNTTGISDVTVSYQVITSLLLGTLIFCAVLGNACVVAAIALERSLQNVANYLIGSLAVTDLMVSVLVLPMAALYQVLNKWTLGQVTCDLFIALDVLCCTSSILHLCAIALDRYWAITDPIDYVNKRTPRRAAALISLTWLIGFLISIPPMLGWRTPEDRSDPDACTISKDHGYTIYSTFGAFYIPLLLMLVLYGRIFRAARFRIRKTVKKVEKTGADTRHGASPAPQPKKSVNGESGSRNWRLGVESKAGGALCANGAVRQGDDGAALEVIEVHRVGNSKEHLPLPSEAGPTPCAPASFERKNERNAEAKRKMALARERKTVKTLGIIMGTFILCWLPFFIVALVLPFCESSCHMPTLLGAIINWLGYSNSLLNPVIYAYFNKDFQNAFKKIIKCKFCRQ
Test: [35S]-GTPγS binding assay on 5-HT1A cloned receptor membrane fragments
Assay type: biochemical
Conditions: maximum agonist response defined by excess 8-OH-DPAT
This section presents compounds with their documented Emax values.

Compound	Assay Target	Emax / %
COc1cc(F)c(F)cc1OCCN[C@H]1CC[C@H](c2c[nH]c3ccc(F)cc32)CC1 [Example 11b]	5-HT1A cloned receptor (Homo sapiens, UniProt P08908)	0
N#Cc1ccc2[nH]cc([C@H]3CC[C@H](NCCOc4cc(F)cc5c4OCCC5)CC3)c2c1 [Example 5f]	5-HT1A cloned receptor (Homo sapiens, UniProt P08908)	30
Fc1ccc2[nH]cc([C@H]3CC[C@H](NCCOc4cccc5[nH]ccc45)CC3)c2c1 [Example 3b]	5-HT1A cloned receptor (Homo sapiens, UniProt P08908)	62
COc1cc(F)c(F)cc1OCCN[C@H]1CC[C@@H](c2c[nH]c3ccc(F)cc32)CC1 [Example 11a]	5-HT1A cloned receptor (Homo sapiens, UniProt P08908)	0
COc1cc(S(C)(=O)=O)c(F)cc1OCCN[C@H]1CC[C@H](c2c[nH]c3ccc(F)cc32)CC1 [Example 12]	5-HT1A cloned receptor (Homo sapiens, UniProt P08908)	0
COc1cc(F)ccc1OCCN[C@H]1CC[C@@H](c2c[nH]c3ccc(F)cc32)CC1 [Example 9a]	5-HT1A cloned receptor (Homo sapiens, UniProt P08908)	45
COc1ccc(F)cc1OCCN[C@H]1CC[C@H](c2c[nH]c3cc(F)ccc32)CC1 [Example 2b]	5-HT1A cloned receptor (Homo sapiens, UniProt P08908)	0
Fc1cc2c(c(OCCN[C@H]3CC[C@H](c4c[nH]c5ccc(F)cc54)CC3)c1)OCCC2 [Example 5b]	5-HT1A cloned receptor (Homo sapiens, UniProt P08908)	22
COc1cc(F)ccc1OCCN[C@H]1CC[C@H](c2c[nH]c3ccc(F)cc32)CC1 [Example 9b]	5-HT1A cloned receptor (Homo sapiens, UniProt P08908)	39.5
Fc1ccc2[nH]cc([C@H]3CC[C@H](NCCOc4cc(Cl)cc5[nH]cnc45)CC3)c2c1 [Example 8a]	5-HT1A cloned receptor (Homo sapiens, UniProt P08908)	0
OC1(CNCCOc2cccc3[nH]ccc23)CCC(c2c[nH]c3ccc(F)cc23)CC1 (stereo not drawn) [Example 13]	5-HT1A cloned receptor (Homo sapiens, UniProt P08908)	85
Fc1ccc2c(c1)[nH]cc2[C@H]1CC[C@H](NCCOc2cccc3c2OCCO3)CC1 [Example 4d]	5-HT1A cloned receptor (Homo sapiens, UniProt P08908)	74.8
